Biological target: CDK12/CycK (Homo sapiens)
Sequence (Q9NYV4 with tags, fused parts or gaps): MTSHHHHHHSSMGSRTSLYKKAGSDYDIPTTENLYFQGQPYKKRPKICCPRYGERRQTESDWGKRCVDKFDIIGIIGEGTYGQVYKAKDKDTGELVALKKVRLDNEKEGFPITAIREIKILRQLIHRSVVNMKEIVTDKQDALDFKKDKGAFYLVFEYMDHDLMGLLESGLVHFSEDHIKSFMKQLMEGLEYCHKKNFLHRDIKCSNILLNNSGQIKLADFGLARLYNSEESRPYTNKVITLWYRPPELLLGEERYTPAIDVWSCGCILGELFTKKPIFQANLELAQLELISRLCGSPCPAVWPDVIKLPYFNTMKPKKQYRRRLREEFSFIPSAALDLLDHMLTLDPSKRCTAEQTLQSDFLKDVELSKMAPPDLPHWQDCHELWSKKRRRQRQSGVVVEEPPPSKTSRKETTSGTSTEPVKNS
Sequence (O75909 1-300 partner limits assumed): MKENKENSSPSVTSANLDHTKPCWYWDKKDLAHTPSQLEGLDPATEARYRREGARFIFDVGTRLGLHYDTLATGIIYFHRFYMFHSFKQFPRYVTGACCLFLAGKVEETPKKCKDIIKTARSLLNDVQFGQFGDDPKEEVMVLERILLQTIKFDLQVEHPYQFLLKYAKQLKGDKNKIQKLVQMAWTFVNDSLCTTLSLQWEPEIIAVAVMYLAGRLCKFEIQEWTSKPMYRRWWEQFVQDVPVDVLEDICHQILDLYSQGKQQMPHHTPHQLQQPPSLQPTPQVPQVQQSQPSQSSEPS
Test: CDK12/CycK high ATP kinase assay (TR-FRET, 2 mM ATP)
Conditions: 2 mM ATP (high ATP); median; read-out: CDK12/CyclinK, 2 mM ATP (high ATP), IC50-[mol/l] (median)
IC50 values, listed per item
Reply numerically in µM, unit not repeated.

CN(CC(C)(C)O)c1nc(NCc2nc3cc(F)c(Cl)cc3[nH]2)n2ncc(C3CC3)c2n1 [Example 317] :: 0.979

Requested field: IC50. Item: Clc1cccc(-c2cnc(CNc3nc(N4CCOCC4)nc4c(Br)cnn34)[nH]2)c1 [Example 81] 0.765

Entry to check: CN1CCN(c2nc(NCc3nc4ccccc4[nH]3)n3ncc(Br)c3n2)C(CO)C1 (single isomer, unassigned) [Example 280] 14.5

Entry to check: C[C@@H]1CN(c2nc(NCc3nc4ccccc4[nH]3)n3ncc(C4CC4)c3n2)C[C@H](C)N1 [Example 248] 9.2
